Can you tell me EC50, neutralization of spike pseudotyped virus for the items I'm about to list?
# Measurement target: SARS-COV-2 spike, Beta variant (B.1.351) (SARS-COV-2, UniProt P0DTC2 14-1273)
# Method description: cell-based or functional assay
Give bare numbers, in nM.

Give me EC50, neutralization of spike pseudotyped virus for each of these binders, listed below.
1. KP1B5 Nb-huFc (Fc fusion) EVQLQASGGGFVQPGGSLRLSCAASGFTFDWSAMGWFRQAPGKEREFVSAISSSTSESTTYADSVKGRFTISRDNSKNTVYLQMNSLRAEDTATYYCATYYGGKTVEQDFYWGQGTQVTVSS
2. KP2C6 Nb-huFc (Fc fusion) EVQLQASGGGFVQPGGSLRLSCAASGRTFTSFHMGWFRQAPGKEREFVSAISSGDDGTQYYADSVKGRFTISRDNSKNTVYLQMNSLRAEDTATYYCAAYTTTTVPQYWGQGTQVTVSS
3. BP1B1 Nb-huFc (Fc fusion) EVQLQASGGGFVQPGGSLRLSCAASGRTFSGYIMGWFRQAPGKEREFVSAISQGDSYASYYADSVKGRFTISRDNSKNTVYLQMNSLRAEDTATYYCALYDINTVPYYWGQGTQVTVSS
4. KP1C9 Nb-huFc (Fc fusion) EVQLQASGGGFVQPGGSLRLSCAASGRTFDAYSMGWFRQAPGKEREFVSAISSWSDDWTAYADSVKGRFTISRDNSKNTVYLQMNSLRAEDTATYYCALQNTKEDRLYWGQGTQVTVSS

[A]
482
411
3.5
203
